All values here come from BigSolDB 2.1.

conditions: in THF, 318.1 K
PARAMETER: solubility (mole fraction)
Provide a numeric answer; units are not to be included.

Problem: Retrieve solubility (mole fraction) measured for Clc1ccc2c(Cl)ccnc2c1 and print it.
Result: 0.0887

---

details: in acetonitrile, 328.3 K
PARAMETER: solubility (mole fraction)

Problem: Retrieve solubility (mole fraction) measured for Clc1ccc2c(Cl)ccnc2c1 and print it.
Result: 0.0788

---

conditions: in acetonitrile, 323.2 K
PARAMETER: solubility (mole fraction)
Provide a numeric answer; units are not to be included.

Problem: Retrieve solubility (mole fraction) measured for Clc1ccc2c(Cl)ccnc2c1 and print it.
Result: 0.0489

---

conditions: in THF, 323.2 K
PARAMETER: solubility (mole fraction)
Provide a numeric answer; units are not to be included.

Problem: Retrieve solubility (mole fraction) measured for Clc1ccc2c(Cl)ccnc2c1 and print it.
Result: 0.1

---

conditions: in water, 318.3 K
PARAMETER: solubility (mole fraction)
Provide a numeric answer; units are not to be included.

Problem: Retrieve solubility (mole fraction) measured for Clc1ccc2c(Cl)ccnc2c1 and print it.
Result: 3.45e-05

---

details: in acetonitrile, 303.2 K
PARAMETER: solubility (mole fraction)
Provide a numeric answer; units are not to be included.

Problem: Retrieve solubility (mole fraction) measured for Clc1ccc2c(Cl)ccnc2c1 and print it.
Result: 0.00814

---

conditions: in water, 327.7 K
PARAMETER: solubility (mole fraction)
Provide a numeric answer; units are not to be included.

Problem: Retrieve solubility (mole fraction) measured for Clc1ccc2c(Cl)ccnc2c1 and print it.
Result: 4.2e-05

---

conditions: in acetonitrile, 299.8 K
PARAMETER: solubility (mole fraction)
Provide a numeric answer; units are not to be included.

Problem: Retrieve solubility (mole fraction) measured for Clc1ccc2c(Cl)ccnc2c1 and print it.
Result: 0.00603

---

conditions: in acetone, 318.1 K
PARAMETER: solubility (mole fraction)
Provide a numeric answer; units are not to be included.

Problem: Retrieve solubility (mole fraction) measured for Clc1ccc2c(Cl)ccnc2c1 and print it.
Result: 0.0818

---

settings: in water, 308.2 K
PARAMETER: solubility (mole fraction)
Provide a numeric answer; units are not to be included.

Problem: Retrieve solubility (mole fraction) measured for Clc1ccc2c(Cl)ccnc2c1 and print it.
Result: 3.01e-05

---

settings: in ethanol, 313.3 K
PARAMETER: solubility (mole fraction)

Problem: Retrieve solubility (mole fraction) measured for Clc1ccc2c(Cl)ccnc2c1 and print it.
Result: 0.0364

---

details: in water, 298 K
PARAMETER: solubility (mole fraction)
Provide a numeric answer; units are not to be included.

Problem: Retrieve solubility (mole fraction) measured for Clc1ccc2c(Cl)ccnc2c1 and print it.
Result: 2.84e-05

---

settings: in THF, 333.4 K
PARAMETER: solubility (mole fraction)
Provide a numeric answer; units are not to be included.

Problem: Retrieve solubility (mole fraction) measured for Clc1ccc2c(Cl)ccnc2c1 and print it.
Result: 0.14

---

settings: in ethanol, 299.8 K
PARAMETER: solubility (mole fraction)

Problem: Retrieve solubility (mole fraction) measured for Clc1ccc2c(Cl)ccnc2c1 and print it.
Result: 0.0113

---

conditions: in ethanol, 303.2 K
PARAMETER: solubility (mole fraction)
Provide a numeric answer; units are not to be included.

Problem: Retrieve solubility (mole fraction) measured for Clc1ccc2c(Cl)ccnc2c1 and print it.
Result: 0.0145
